Sourced from patent US8299023

# target: T1, human NPY2 receptor (human, UniProt P49146 1-381)
# T1 sequence (looked up): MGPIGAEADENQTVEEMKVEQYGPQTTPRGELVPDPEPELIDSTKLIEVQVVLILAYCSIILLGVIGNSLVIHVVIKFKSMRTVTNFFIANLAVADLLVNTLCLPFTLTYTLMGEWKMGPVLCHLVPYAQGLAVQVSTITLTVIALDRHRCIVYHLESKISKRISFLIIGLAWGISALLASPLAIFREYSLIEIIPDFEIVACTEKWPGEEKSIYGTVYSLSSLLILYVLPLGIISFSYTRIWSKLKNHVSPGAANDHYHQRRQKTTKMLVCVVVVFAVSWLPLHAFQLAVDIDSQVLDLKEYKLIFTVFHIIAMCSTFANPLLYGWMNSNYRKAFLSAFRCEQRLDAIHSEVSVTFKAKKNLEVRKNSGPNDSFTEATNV
# experiment.summary: cell-based or functional assay
Numbered stars: 1 amine (or outer) side, 2 acyl side, 3 side chain; on linkers, the order of the positions; unused ones are H or OH. Square brackets hold non-standard residues; d marks the D form. Primed or numbered codes have the meaning given here. HomPqa = 3-hydroxy-2-(4-oxo-6-piperazin-1-yl-4H-quinazolin-3-yl)-propionic acid, O=C(C(CO[*:3])n1cnc2ccc(N3CCN([*:1])CC3)cc2c1=O)[*:2]; Dqa = (6-[1,4]diazepan-1-yl-4-oxo-4H-quinazolin-3-yl)-acetic acid, O=C(Cn1cnc2ccc(N3CCCN([*:1])CC3)cc2c1=O)[*:2]; Appa = (6-Amino-2-piperazin-1-yl-9H-purin-8-yl)-acetic acid, Nc1nc(N2CCN([*:1])CC2)nc2[nH]c(CC(=O)[*:2])nc12; Cba′ = (4-Aminomethyl-biphenyl-3-yl)-acetic acid, O=C(Cc1cc(-c2ccccc2)ccc1CN[*:1])[*:2]; Bqa = ((1R,4S)-6-2-Aza-bicyclo[2.2.1]hept-5-yl-4-oxo-4H-quinazolin)-acetic acid; Ppa = (2-piperazin-1-yl-purin-7-yl)-acetic acid; NMeR = CN[C@@H](CCCNC(=N)N)C(=O)O
Hi there, I'd appreciate the recorded Y2R EC50 (nM) cAMP for every entry that follows.
Report as a plain number; the unit nM is understood.

Query :: Which Y2R EC50 (nM) cAMP reading was recorded for the binder Ac-IK[Ppa]RHYLNWVTRQ[NMeR]Y-NH2 [Ac-Ile-Lys-Ppa-Arg-His-Tyr-Leu-Asn-Trp-Val-Thr-Arg-Gln-(NMe)Arg-Tyr-NH2] ?
Result :: 0.12

Query :: # repeat for Ac-IK[Appa]RHYLNWVTRQ[NMeR]Y-NH2 [Ac-Ile-Lys-Appa-Arg-His-Tyr-Leu-Asn-Trp-Val-Thr-Arg-Gln-(NMe)Arg-Tyr-NH2]
Result :: 0.18

Query :: Proceed to Ac-IK[Dqa]RHYLNWVTRQ[NMeR]Y-NH2 [Ac-Ile-Lys-Dqa-Arg-His-Tyr-Leu-Asn-Trp-Val-Thr-Arg-Gln-(NMe)Arg-Tyr-NH2]
Result :: 0.35

Query :: Try this binder next: Ac-IK[Bqa]RHYLNWVTRQ[NMeR]Y-NH2 [Ac-Ile-Lys-Bqa-Arg-His-Tyr-Leu-Asn-Trp-Val-Thr-Arg-Gln-(NMe)Arg-Tyr-NH2]
Result :: 0.17

Query :: Could you do the same for Ac-IK[Cba′]RHYLNWVTRQ[NMeR]Y-NH2 [Ac-Ile-Lys-Cba-Arg-His-Tyr-Leu-Asn-Trp-Val-Thr-Arg-Gln-(NMe)Arg-Tyr-NH2] , please?
Result :: 1.97

Query :: Consider next the binder Ac-IK[HomPqa]RHYLNWVTRQ[NMeR]Y-NH2 [Ac-Ile-Lys-HomPqa-Arg-His-Tyr-Leu-Asn-Trp-Val-Thr-Arg-Gln-(NMe)Arg-Tyr-NH2] in the same way.
Result :: 4.35
